Origin of the recorded values: paper PMC11509912

Target: PPARγ (Homo sapiens)
Sequence (P37231 231-505 limits assumed): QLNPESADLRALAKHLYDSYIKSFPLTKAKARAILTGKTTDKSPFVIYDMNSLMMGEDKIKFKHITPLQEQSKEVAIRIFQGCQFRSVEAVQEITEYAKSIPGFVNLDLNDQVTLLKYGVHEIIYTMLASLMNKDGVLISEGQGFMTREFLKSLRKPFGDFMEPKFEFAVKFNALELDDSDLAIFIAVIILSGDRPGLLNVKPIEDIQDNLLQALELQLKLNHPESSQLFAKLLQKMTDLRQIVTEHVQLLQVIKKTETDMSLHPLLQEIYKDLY
Quantity name: pKi
Give bare numbers, as −log10 of the molar value.

INPUT: So what does the record say about pKi for COc1cc([C@@H]2c3cc4c(cc3C(=O)[C@H]3COC(=O)[C@H]23)OCO4)cc(OC)c1OC ?
OUTPUT: 5.01
